TARGET_DESC: T1, human PD-L1 antigen (Beijing Sino Biological Inc, Catalog No. #10084-H08H-100) (human, UniProt Q9NZQ7 19-239)
T1 construct: Bought antigen; also called the antigen
PROCEDURE_TEXT: BLI (ForteBIO Octet), antibody captured on sensor, human PD-L1 in solution
Recorded measurements of Kd, one per entry
ATTRIBUTE_MEASURED: Kd (nM)

1. Antibody II-HX-11 (antibody, human IgG4 S228P, kappa, V domains shown) VH: VQLVQSGAEVKKPGASVKVSCKASGYYTSSPVMHWVRQAPGQGLEWMGYINYFYDGTKYNEKFKGRVTITSDKSASTAYMELSSLRSEDTAVYYCAKSAIAFEYWGQGTLVTVSS VL: TQSPSFLSASVGDRVTITCSASSTVYYMHWFQQKPGKSPKLWIYSTSNLASGVPARFSGSGSGTSYSLTISSLQPEDFATYYCQYRSSYWYTFGQGTKLEIKR :: 2.8
2. Antibody II-HX-18 (antibody, human IgG4 S228P, kappa, V domains shown) VH: VQLVQSGAEVKKPGASVKVSCKASGYYTSSPVMHWVRQAPGQGLEWMGYINPYNDGTKYNEKFKGRVTITSDKSASTAYMELSSLRSEDTAVYYCAKSGGISDYWGQGTLVTVSS VL: TQSPSFLSASVGDRVTITCSASSSASYMHWFQQKPGKSPKLWIYSYSNLASGVPARFSGSGSGTSYSLTISSLQPEDFATYYCQYRTSYPYTFGQGTKLEIKR :: 0.624
3. Antibody II-HX-19 (antibody, human IgG4 S228P, kappa, V domains shown) VH: VQLVQSGAEVKKPGASVKVSCKASGYYTTSYVMHWVRQAPGQGLEWMGYINHFQDATKYNEKFKGRVTITSDKSASTAYMELSSLRSEDTAVYYCAWSGAIFEYWGQGTLVTVSS VL: TQSPSFLSASVGDRVTITCSASSSGYYMHWFQQKPGKSPKLWIYTTSNLASGVPARFSGSGSGTSYSLTISSLQPEDFATYYCQQRSSYPYTFGQGTKLEIKR :: 1.23
